- Procedure details: Phase I study plasma pharmacokinetics
- Format: in vivo, human
- Recorded conditions: human, plasma, oral, 200 mg/day, Multiple administrations Day 22; 200 mg/day QD; n=5; median; read-out: Tmax
Reported property: Tmax (h)
Write it as a number; the unit h goes unstated.

Sample Cc1ccc2c(Nc3cccc(Cl)c3F)nccc2c1NC(=O)c1csc2c(N)ncnc12 [Belvarafenib] — what was its Tmax?
3.2

* * *

- Procedure details: Phase I study plasma pharmacokinetics
- Type: in vivo, human
- Recorded conditions: human, plasma, oral, 1300 mg/day, Multiple administrations Day 22; 1300 mg/day BID; n=6; mean
Reported property: Cmax
The answer consists of two parts: a number and, after it, its unit.

# lookup: Cmax of `Cc1ccc2c(Nc3cccc(Cl)c3F)nccc2c1NC(=O)c1csc2c(N)ncnc12`
7320 ng/mL

* * *

- Procedure details: Phase I study plasma pharmacokinetics
- Assay type: in vivo, human
- Recorded conditions: human, plasma, oral, 200 mg/day, Multiple administrations Day 22; 200 mg/day QD; n=6; mean
Reported property: AUC(0-t) (ng·h/mL)
Express your answer in ng·h/mL, writing the number without its unit.

Would you mind telling me what AUC(0-t) value was observed for Cc1ccc2c(Nc3cccc(Cl)c3F)nccc2c1NC(=O)c1csc2c(N)ncnc12 [Belvarafenib] ?
41600

* * *

- Procedure details: Phase I study plasma pharmacokinetics
- Format: in vivo, human
- Recorded conditions: human, plasma, po, 200 mg, Day 1 first dose; 200 mg/day QD; n=6; median; read-out: Tmax
Reported property: Tmax

Recorded Tmax of `Cc1ccc2c(Nc3cccc(Cl)c3F)nccc2c1NC(=O)c1csc2c(N)ncnc12` , please.
4.4 h

* * *

- Procedure details: Phase I study plasma pharmacokinetics
- Assay type: in vivo, human
- Recorded conditions: human, plasma, oral, 100 mg/day, Multiple administrations Day 22; 100 mg/day QD; n=3; mean; read-out: AUC24
Reported property: AUC (ng·h/mL)
Reply with just the number (in ng·h/mL).

Which AUC is listed for `Cc1ccc2c(Nc3cccc(Cl)c3F)nccc2c1NC(=O)c1csc2c(N)ncnc12` ?
42000
